I'd be grateful if you could share measured Potency (relative binding potency) for these entries.
- MEASURED TARGET: CI‐M6P/IGF2R:D1–D15 (Homo sapiens)
- Construct: domains 1–15 (residues AA 41–2304); gp67 signal peptide (X1) (N, cleaved yes); 6‐His‐tag (C); PreScission protease cutting site (C); TwinStrep‐tag (C); made in house; host or cells: Spodoptera frugiperda Sf9 insect cells (baculovirus, pFastBac-1), secreted into the medium
- ASSAY NAME: Competitive fluorescence polarization assay (displacement of fluorescent glycopeptide 1)
- Type: binding
- TEST CONTEXT: (IC50 of compound 2 / IC50 of compound) × 100
Give your result in % as a bare value.

Problem: Supply reported Potency (relative binding potency) belonging to this compound: CO[C@H]1O[C@H](CP(=O)(O)O)[C@@H](O)[C@H](O)[C@@H]1O
Solution: 0.35

Problem: Supply reported Potency (relative binding potency) belonging to this compound: CO[C@H]1O[C@H](CCP(=O)(O)O)[C@@H](O)[C@H](O)[C@@H]1O
Solution: 4.1

Problem: Supply reported Potency (relative binding potency) belonging to this compound: O=P(O)(O)CC[C@H]1O[C@H](C/C=C/c2ccc(O)cc2)[C@@H](O)[C@@H](O)[C@@H]1O
Solution: 11.3

Problem: Supply reported Potency (relative binding potency) belonging to this compound: CO[C@H]1O[C@H](CCC(=O)O)[C@@H](O)[C@H](O)[C@@H]1O
Solution: 0.85

src = paper PMC12284618
